- System: Leishmania donovani
- measurement protocol: Antileishmanial activity against Leishmania donovani LdBOB derived from MHOM/SD/62/1 S-CL2D promastigotes overexpressing NTR1 incubated for 72 hrs by resazurin dye based assay
- Assay type: functional, organism-based
observation type: IC50 (nM)
Expressed in nM, but write only the number.

# IC50 measured on Leishmania donovani for item C/[N+]([O-])=C/c1ccc([N+](=O)[O-])s1 = 240

# IC50 measured on Leishmania donovani for item O=[N+]([O-])c1ccc(/C=[N+](\[O-])Cc2ccccc2)o1 = 1220

# IC50 measured on Leishmania donovani for item CC(C)(C)/[N+]([O-])=C/c1ccc([N+](=O)[O-])s1 = 270

# IC50 measured on Leishmania donovani for item CC1CS(=O)(=O)CCN1/N=C/c1ccc([N+](=O)[O-])o1 (configuration not stated) = 110

# IC50 measured on Leishmania donovani for item O=[N+]([O-])c1ccc(/C=[N+](\[O-])Cc2ccccc2)s1 = 300

# IC50 measured on Leishmania donovani for item C/[N+]([O-])=C/c1ccc([N+](=O)[O-])o1 = 30

# IC50 measured on Leishmania donovani for item CC(C)(C)/[N+]([O-])=C/c1ccc([N+](=O)[O-])o1 = 50

Where do these numbers come from? They come from ChEMBL document CHEMBL4823323.
